# target.desc: adenosine A2a receptor (Human) (Homo sapiens)
# Construct: host or cells: HEK293
# Sequence (P29274 whole entry): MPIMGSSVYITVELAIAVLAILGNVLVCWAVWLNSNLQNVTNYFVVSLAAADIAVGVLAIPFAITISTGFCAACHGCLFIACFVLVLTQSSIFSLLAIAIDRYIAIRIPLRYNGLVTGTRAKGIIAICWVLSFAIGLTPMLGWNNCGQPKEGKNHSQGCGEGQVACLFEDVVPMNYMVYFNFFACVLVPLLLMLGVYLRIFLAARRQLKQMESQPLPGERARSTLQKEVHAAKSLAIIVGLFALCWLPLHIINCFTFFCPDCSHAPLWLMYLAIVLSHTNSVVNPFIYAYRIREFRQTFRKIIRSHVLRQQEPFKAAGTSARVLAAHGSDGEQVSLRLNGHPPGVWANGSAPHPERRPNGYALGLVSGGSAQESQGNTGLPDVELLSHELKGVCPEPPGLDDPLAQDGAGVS
# method.summary: c-AMP generating action in cell expressing adenosine A2a receptor
# Assay type: cell-based

# compound.structure, EC50, nM
data = [
    ("CC(=O)Nc1ccc(-c2nc(SCc3cccc(CCC(=O)N4CCN(CC5CCN(CCF)CC5)CC4)n3)nc(N)c2C#N)cc1", 6.1),
]

====

# target.desc: adenosine A2a receptor (Human) (Homo sapiens)
# Construct: host or cells: HEK293
# method.summary: c-AMP generating action in cell expressing adenosine A2a receptor
# Assay type: cell-based
# condition.label: HEK293 cell expressing human adenosine A2a receptor; c-AMP by 1 μM CGS-21680 defined as 100%; read-out: A2a agonistic activity (EC50)
# Description: Test 1: c-AMP Generating Action in Cell Expressing Adenosine A2a Receptor […] The cell was placed on 96 well plate (1×10^5/well), and cultured overnight. […] The amount of c-AMP in each well was measured by using the c-AMP enzyme immunoassay (EIA) system (Amersham Biosciences, Code No. RPN225). […]
Where a name gives a salt, the structure may show the parent alone.
Here, each record is paired with measured EC50 data.

# compound, target.desc, readout.unit, EC50
records = [
    ("COC(=O)CCN1CCC(CN2CCN(C(=O)CCc3cccc(CSc4nc(N)c(C#N)c(-c5ccc(NC(C)=O)cc5)n4)n3)CC2)CC1", "adenosine A2a receptor (Human) (Homo sapiens)", "nM", 8.4),
    ("CC(=O)Nc1ccc(-c2nc(SCc3cccc(CCC(=O)N4CCN(CC5CCNCC5)CC4)n3)nc(N)c2C#N)cc1 [Example 1, trihydrochloride]", "adenosine A2a receptor (Human) (Homo sapiens)", "nM", 3.3),
    ("CC(=O)Nc1ccc(-c2nc(SCc3cccc(CCC(=O)N4CCN(CC5CCN(CCO)CC5)CC4)n3)nc(N)c2C#N)cc1 [Example 2, maleate]", "adenosine A2a receptor (Human) (Homo sapiens)", "nM", 2.9),
    ("CC(=O)Nc1ccc(-c2nc(SCc3cccc(CCC(=O)N4CCN(CC5CCN(CCCO)CC5)CC4)n3)nc(N)c2C#N)cc1", "adenosine A2a receptor (Human) (Homo sapiens)", "nM", 1.8),
]
